# protocol_text: qHTS Assay for Lipid Storage Modulators (AID 1519)
# conditions_used: Drosophila S3 cells, BODIPY lipid droplet/cell ratio, laser cytometry; measured here: lipid channel max response; cells loaded with oleic acid
Inconclusive results are not listed.
endpoint_label: max response

Per the record, NCC1O[C@@H](OC2C(N)C[C@H](N)[C@@H](O[C@H]3OC(CO)C(O)C(N)C3O)C2O)C(N)C(O)C1O (stereo partly specified) has max response of 7.99%

molecule "C[C@]1(c2ccccc2)OC(C(=O)O)=CC1=O" , max response observed: -6.08%

The reported value for Nc1nc2c(ncn2C2OC(CO)CC2O)c(=O)[nH]1 (stereo unspecified) in terms of max response is 10.6%

For this molecule ( "C#C[C@@]1(O)CC[C@@H]2[C@@H]3CCC4=C(CCC(=O)C4)[C@H]3CC[C@]21C" ), measured max response is -12.8%

max response measured on CN(C)CCc1c[nH]c2ccc(CC3COC(=O)N3)cc12 (stereo unspecified) = 11.4%

Note to self: max response recorded for "C[N+]1(C)CC[C@@H](OC(=O)[C@@](O)(c2ccccc2)C2CCCC2)C1" was -10.3%

For reference, reported max response for CC1(C)CC2C1CCC1(C)OC1CCC2(C)O (stereo unspecified) stands at 2.87%

Value of measured max response for the entry "C1CCN2C[C@@H]3C[C@@H](CN4CCCC[C@H]34)[C@H]2C1" : -5.58%

Data point: CC(=O)OCC(OC(C)=O)C(OC(C)=O)C(OC(C)=O)C(OC(C)=O)C(COC(C)=O)OC(C)=O (stereo unspecified) ; max response = 17.8%

Entry under test: CC(C)CCCC(C)C1CCC2C3=CC[C@@H]4CC(O)CC[C@@]4(C)C3CC[C@]21C (stereo partly specified) . Its max response was 4.39%

Input "CCOc1ccc(C(=O)c2ccc(OC)c(O)c2O)cc1" . Output max response: 16.2%

====

# Test system: CP256
# protocol_text: qHTS profiling for inhibitors of Plasmodium falciparum proliferation (AID 504749); note: nearly all actives have a fitted effect of over 60% in size
# conditions_used: P. falciparum in erythrocytes, SYBR Green DNA, 72 h; series mostly up to 12.8 µM
Inconclusive results are not listed. Activity calls are given as the source filed them. Calls follow the shape of the dose curve; as a rule, active = well fitted inhibition curve with a large enough effect; inconclusive = small, poorly fitted or top-dose-only effect; inactive = flat fitted curve, though single readings scatter.
One label from this list, please: class 1 = active, class 0 = inactive

Answer briefly: the call reported for C[C@@H]1Cc2ccccc2N1NC(=O)c1ccc(Cl)c(S(N)=O)c1 (stereo partly drawn) in this assay.
class 0

Test call, this compound: COc1ccc2cc1Oc1ccc(cc1)CC1c3c(cc4c(c3Oc3cc5c(cc3OC)CCN(C)C5C2)OCO4)CCN1C (stereo not drawn)
class 1

Would you mind telling me which call this test gave CC(C)C1CCC(C(=O)NC(Cc2ccccc2)C(=O)O)CC1 (stereo not drawn) ?
class 0

Test call for this compound, please: "CO[C@H]1[C@H](O[C@H]2O[C@@H](C)[C@@H](O[C@@H]3C[C@](C)(O)[C@H](OC(=O)CC(C)C)[C@H](C)O3)[C@@H](N(C)C)[C@@H]2O)[C@@H](CC=O)C[C@@H](C)[C@@H](O)/C=C\C=C/C[C@@H](C)OC(=O)C[C@H]1OC(C)=O"
class 1

What is the recorded call for this compound in the test? "CCC[C@@H]1O[C@@H]2C[C@@H]3[C@H]4CCC5=CC(=O)C=C[C@@]5(C)[C@H]4[C@H](O)C[C@@]3(C)[C@@]2(C(=O)CO)O1"
class 1

Per the records of this test, what outcome belongs to "Cc1cccc(CN2CCN([C@@H](c3ccccc3)c3ccc(Cl)cc3)CC2)c1" ?
class 0

Dear all, I need the recorded test outcome for "Nc1nc(NC2CC2)c2ncn([C@H]3C=C[C@@H](CO)C3)c2n1" , thank you.
class 0

What call does the record list for "CCc1c(C)[nH]c2c1C(=O)[C@H](CN1CCOCC1)CC2" ?
class 0

====

# study_target: Rap guanine nucleotide exchange factor 4 (Homo sapiens)
# protocol_text: Confirmatory qHTS for antagonist of cAMP-regulated guanine nucleotide exchange factor 4 (EPAC2) (AID 1645885); note: nearly all actives have a fitted effect of over 25% in size
# conditions_used: EPAC2 Rap1B-BODIPY-GDP exchange fluorescence, biochemical; series mostly up to 12.7 µM
Results filed as inconclusive are left out. Activity calls are given as the source filed them. The call rests on the fitted dose curve; in most records, active means well fitted inhibition curve with a large enough effect; inconclusive means small, poorly fitted or top-dose-only effect; inactive means no such curve, though single readings can be large or run the other way.
Output constraint: value belongs to yes (1) for active, no (0) for inactive

What outcome does the record of this test show for "CN1OC[C@@H]2CN(C(=O)CCc3ccccc3)[C@H](c3cccc(-c4ccc(C#N)cc4)c3)C[C@@H]21" ?
no (0)

I would be grateful if you could indicate the recorded call for "N#Cc1c(-c2ccccc2)nc(SCc2cccc(C(F)(F)F)c2)[nH]c1=O" .
yes (1)

Query: recorded result category for "Oc1ccc(-c2csc(Nc3cccnc3)n2)cc1" in this test
no (0)

Which outcome did this test record for the compound CCCC1CC(c2csc(N)n2)CCO1 (stereo not given) ?
no (0)

How did this test come out for "COc1ccccc1NC(=O)Nc1nc(CC(=O)Nc2ccc(N(C)C)cc2)cs1" ?
no (0)

// param item: "Cn1nc(-c2ccccn2)nc2c(=O)n(C)c(=O)nc1-2" ; yields the recorded call
no (0)

Check the results log: what was the call for CCOC(=O)C1CCCCN1C(=O)c1oc2c(Cl)cc(C)cc2c1C (stereo not given) ?
no (0)

Hey, what did the test say about Cc1cc(C)c(S(=O)(=O)N2CCCCC2CCNC(=O)C(=O)NCC2CCCO2)c(C)c1 (stereo not given) ?
no (0)

I would be grateful if you could indicate the recorded call for "COC(=O)c1sc(-c2ccc(C(C)(C)C)cc2)cc1NC(=O)c1ccccc1C(=O)O" .
no (0)

# lookup: test call for "COc1ccc(C(=O)NCc2ccc3c(c2)CCN3C(=O)c2ccc(C)cc2)cc1"
no (0)

====

Field: max response. Provide a value for each of the compounds that follow.
# protocol_text: qHTS Assay for Lipid Storage Modulators (AID 1519)
# conditions_used: Drosophila S3 cells, BODIPY lipid droplet/cell ratio, laser cytometry; measured here: cell count channel max response; cells loaded with oleic acid
# Method: NIH Molecular Libraries Probe Production Centers Network [MLPCN] NIH Chemical Genomics Center [NCGC] Assay Submitter (PI): Beller, Mathias; Max-Planck-Institut fur Biophysikalische Chemie […] We dispensed 4 uL of cells at 1.25 x 10^6 cells/mL into LoBase Aurora COC 1,536-well plates (black walled, clear bottom) with a bottle-valve solenoid-based dispenser (Aurora) to obtain 5,000 cells/well. […] The ratio of the total intensity in PMT channel 1 over total intensity of channel 3 was also calculated. […]
Inconclusive results are not listed.
Note: unit % is implicit; provide only the numeric part.

max response for CCCCCC(CC(=O)O)C(=O)O (stereo not drawn) is 21.4

Lab note: measured max response of NCC1CCC(N)C(O[C@@H]2C(O)[C@H](O[C@H]3OC(CO)C(O)C(N)C3O)[C@@H](N)C[C@H]2N)O1 (stereo partly drawn) was 28.1

Recorded max response (compound C=CCCCCCCCCCCCC(O)CC(O)COC(C)=O (stereo not drawn) ): 4.88

For this compound ( "C[C@H](CCC(=O)NCC(=O)O)[C@H]1CC[C@H]2[C@H]3[C@@H](C[C@@H](O)[C@]12C)[C@]1(C)CC[C@H](O)C[C@@H]1C[C@@H]3O" ), measured max response is -1.04

// max response lookup, compound = CNC(CC(=O)O)C(=O)O (stereo not drawn) , result: 10.8

Looking up CC1(C)C(O)C=C[C@@]2(C)C1CC(=O)O[C@@]1(C)C3=CC(=O)OC(c4ccoc4)[C@]3(C)CCC21 (stereo partly drawn) , I found its max response recorded as 1.87

// max response value for CCOC(=O)CCC(=O)O[C@H]1C(O[C@@H]2C(C)[C@H](O[C@H]3C[C@@](C)(OC)C(O)C(C)O3)C(C)C(=O)OC(CC)[C@@](C)(O)C(O)[C@H](C)C(=O)C(C)C[C@]2(C)O)OC(C)CC1N(C)C (stereo partly drawn) : 3.86

Lab book: max response of C=C1CCC(C2CC(=O)OC2=O)C(=O)CCC2C1CC2(C)C (stereo not drawn) noted as 19.1

====

# Tested on: C2A
# protocol_text: qHTS profiling for inhibitors of Plasmodium falciparum proliferation (AID 504749); note: nearly all actives have a fitted effect of over 60% in size
# conditions_used: P. falciparum in erythrocytes, SYBR Green DNA, 72 h; series mostly up to 12.8 µM
Inconclusive results are not listed. Activity calls are given as the source filed them. The call rests on the fitted dose curve; in most records, active means well fitted inhibition curve with a large enough effect; inconclusive means small, poorly fitted or top-dose-only effect; inactive means flat fitted curve, though single readings scatter.
endpoint_label: outcome

Reference set, count: 5
compound	outcome
O=C(Nc1ccccc1)OC[C@H](CN1CCCCC1)OC(=O)Nc1ccccc1	inactive
C[C@@H]1Cc2ccccc2N1NC(=O)c1ccc(Cl)c(S(N)=O)c1 (some centres not stated)	inactive
CC1(C)SC2C(N3C(=O)C(c4ccccc4)NC3(C)C)C(=O)N2C1C(=O)O (configuration not stated)	inactive
CC=C(/C(=C/C)c1ccc(O)cc1)c1ccc(O)cc1	inactive
CCC(=O)O[C@@H]1[C@H](C)O[C@H](O[C@H]2[C@@H](N(C)C)[C@H](O)[C@@H](O[C@@H]3[C@@H](CC=O)C[C@@H](C)[C@@H](O)/C=C\C=C/C[C@@H](C)OC(=O)C[C@@H](OC(=O)CC)[C@H]3OC)O[C@H]2C)C[C@]1(C)O	inactive

Measured outcome of "CCO[C@H]1O[C@@H]([C@H](COCc2ccccc2)OCc2ccccc2)[C@@H](OCc2ccccc2)[C@H]1O" : inactive

Summary for this compound, "COc1c(O[C@H]2O[C@@H](CO)[C@@H](O)[C@@H](O)[C@@H]2O)cc2c(c1OC)-c1ccc(SC)c(=O)cc1[C@H](NC(C)=O)CC2" : outcome is inactive

GET /value?item= "CN(C)CCn1nnnc1SCC1=C(C(=O)O)N2C(=O)[C@@H](NC(=O)Cc3csc(N)n3)[C@@H]2SC1" &field=outcome returns inactive

Ref: PubChem BioAssay (NCATS)
